The origin of these recorded values is ChEMBL document CHEMBL4609995.

- Tested on: A549
- procedure-summary: Antiproliferative activity against human A549 cells assessed as reduction in cell growth measured after 72 hrs by Alamar blue assay
- Assay type: functional, cell-based
- test-parameters: A549, 72 h
log10 of IC50 reference
Please interpret these as log10 of IC50 where IC50 is in µM.

Answered examples (8):
• COc1ccc(-c2nc3c(=O)n(C)c(=O)nc-3n(C)n2)cc1 = 0.04
• Cn1ncnc2c(=O)n(C)c(=O)nc1-2 = -1.66
• COC(=O)C1(c2ccc(-c3nc4c(=O)n(C)c(=O)nc-4n(C)n3)cc2)CC1 = 0.11
• Cn1nc(-c2ccc(O)cc2)nc2c(=O)n(C)c(=O)nc1-2 = 0.76
• Cn1nc(-c2ccncc2)nc2c(=O)n(C)c(=O)nc1-2 = 0.63
• Cn1nc(-c2ccc(C#N)cc2)nc2c(=O)n(C)c(=O)nc1-2 = 0.28
• Cn1nc(-c2ccccc2)nc2c(=O)n(C)c(=O)nc1-2 = 0.04
• Cn1nc(-c2ccc(F)cc2)nc2c(=O)n(C)c(=O)nc1-2 = 0.20

Task: Provide the documented log10 of IC50 with A549 as the system for "Cn1nc(-c2ccn(C)c(=O)c2)nc2c(=O)n(C)c(=O)nc1-2"
Result: 0.94

Task: Continue with "CN(C)c1ccccc1-c1nc2c(=O)n(C)c(=O)nc-2n(C)n1"
Result: 0.76

---

- procedure-summary: Substrate activity at P-gp in MDCK2-MDR1 cells at 10 uM incubated for 60 mins in presence or absence of 2 uM P-gp inhibitor elacridar by LC-MS/MS analysis
- Format: ADME, cell-based, Canis lupus familiaris
- test-parameters: dog, mdck-mdr1, 1 h
property-label: Activity

- Cn1nc(-c2ccncc2)nc2c(=O)n(C)c(=O)nc1-2: Not Active
- Cn1nc(-c2ccc(C#N)cc2)nc2c(=O)n(C)c(=O)nc1-2: Not Active

---

- test-system: Lysine-specific demethylase 4C (Homo sapiens)
- Sequence (Q9H3R0 whole entry): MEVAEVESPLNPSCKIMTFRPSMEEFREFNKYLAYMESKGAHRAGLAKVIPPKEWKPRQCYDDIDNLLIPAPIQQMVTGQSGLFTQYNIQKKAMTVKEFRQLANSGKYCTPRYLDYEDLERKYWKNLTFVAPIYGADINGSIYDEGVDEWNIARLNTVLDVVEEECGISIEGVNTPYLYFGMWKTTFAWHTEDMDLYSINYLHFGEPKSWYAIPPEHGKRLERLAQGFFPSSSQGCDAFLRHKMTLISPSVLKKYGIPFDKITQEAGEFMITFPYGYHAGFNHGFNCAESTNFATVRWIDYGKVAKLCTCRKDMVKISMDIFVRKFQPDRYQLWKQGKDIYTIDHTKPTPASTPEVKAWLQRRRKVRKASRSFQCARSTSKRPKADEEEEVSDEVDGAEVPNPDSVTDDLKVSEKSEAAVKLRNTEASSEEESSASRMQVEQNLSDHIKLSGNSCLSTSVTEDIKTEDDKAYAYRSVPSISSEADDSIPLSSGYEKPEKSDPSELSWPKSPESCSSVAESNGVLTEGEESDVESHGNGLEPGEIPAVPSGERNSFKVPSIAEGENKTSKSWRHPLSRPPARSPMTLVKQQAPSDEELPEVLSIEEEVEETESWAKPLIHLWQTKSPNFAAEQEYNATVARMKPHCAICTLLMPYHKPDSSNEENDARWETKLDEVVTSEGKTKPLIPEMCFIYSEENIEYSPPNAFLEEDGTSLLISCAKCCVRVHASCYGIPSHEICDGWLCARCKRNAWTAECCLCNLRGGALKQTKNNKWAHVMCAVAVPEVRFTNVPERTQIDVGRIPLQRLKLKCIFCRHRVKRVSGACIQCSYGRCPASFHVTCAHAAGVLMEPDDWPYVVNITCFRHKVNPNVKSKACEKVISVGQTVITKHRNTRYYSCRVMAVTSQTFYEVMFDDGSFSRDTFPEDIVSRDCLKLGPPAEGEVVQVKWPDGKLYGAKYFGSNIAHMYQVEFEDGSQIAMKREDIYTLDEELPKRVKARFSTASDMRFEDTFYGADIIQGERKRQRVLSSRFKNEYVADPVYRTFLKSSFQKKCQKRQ
- procedure-summary: Inhibition of KDM4C (unknown origin)
property-label: pIC50
Friendly reminder that pIC50 comes from taking -log10 of the concentration in mol/L.

Task: Provide the documented pIC50 with Lysine-specific demethylase 4C (Homo sapiens) as the system for "Cn1ncnc2c(=O)n(C)c(=O)nc1-2"
Result: 6.30

---

- test-system: Lysine-specific demethylase 4A (Homo sapiens)
- Sequence (O75164 whole entry): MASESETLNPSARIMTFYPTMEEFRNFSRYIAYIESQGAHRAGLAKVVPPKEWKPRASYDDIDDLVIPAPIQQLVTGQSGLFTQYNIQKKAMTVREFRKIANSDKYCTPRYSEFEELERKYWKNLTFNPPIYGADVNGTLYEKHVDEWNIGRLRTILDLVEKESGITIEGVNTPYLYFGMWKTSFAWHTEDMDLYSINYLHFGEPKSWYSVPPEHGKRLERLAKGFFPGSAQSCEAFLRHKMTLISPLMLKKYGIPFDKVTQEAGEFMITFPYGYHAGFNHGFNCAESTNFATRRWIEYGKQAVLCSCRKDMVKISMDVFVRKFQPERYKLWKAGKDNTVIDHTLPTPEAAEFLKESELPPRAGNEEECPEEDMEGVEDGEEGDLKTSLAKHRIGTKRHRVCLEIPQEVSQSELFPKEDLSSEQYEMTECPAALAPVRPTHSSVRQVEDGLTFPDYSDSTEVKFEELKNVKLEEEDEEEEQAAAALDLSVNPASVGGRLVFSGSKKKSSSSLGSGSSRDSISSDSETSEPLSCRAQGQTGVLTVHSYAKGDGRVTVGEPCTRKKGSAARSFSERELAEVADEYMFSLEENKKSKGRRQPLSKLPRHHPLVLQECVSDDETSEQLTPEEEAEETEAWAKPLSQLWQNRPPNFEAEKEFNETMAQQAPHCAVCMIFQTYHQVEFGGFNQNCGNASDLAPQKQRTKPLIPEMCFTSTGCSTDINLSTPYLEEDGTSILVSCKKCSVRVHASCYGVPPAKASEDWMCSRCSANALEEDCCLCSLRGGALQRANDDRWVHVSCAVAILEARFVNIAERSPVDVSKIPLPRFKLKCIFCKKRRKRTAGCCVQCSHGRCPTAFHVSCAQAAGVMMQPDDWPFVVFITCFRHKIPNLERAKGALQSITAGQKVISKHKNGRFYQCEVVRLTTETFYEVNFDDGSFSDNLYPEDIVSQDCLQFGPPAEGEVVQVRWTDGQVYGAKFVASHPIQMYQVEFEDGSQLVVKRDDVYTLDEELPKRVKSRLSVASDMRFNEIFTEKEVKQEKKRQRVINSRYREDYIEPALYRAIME
property-label: IC50 (nM)
# number only, unit nM dropped from output

Task: Query: IC50; subject: "Cn1ncnc2c(=O)n(C)c(=O)nc1-2"
Result: 2500

---

- System: P-gp
- procedure-summary: Permeability across apical to basolateral side in MDCK2-MDR1 cells at 10 uM incubated for 60 mins in presence 2 uM P-gp inhibitor elacridar by LC-MS/MS analysis
- Assay type: ADME, cell-based, Canis lupus familiaris
- test-parameters: dog, MDCK-MDR1, with elacridar 2 uM; read-out: permeability
property-label: Papp A→B at 1 h, 10 µM (×10⁻⁶ cm/s)
# number only, unit ×10⁻⁶ cm/s dropped from output

Answered examples (3):
* Cn1c(=O)nc2[nH]nc(-c3ccccc3)nc-2c1=O | 35.5
* Cn1ncnc2c(=O)n(C)c(=O)nc1-2 | 16
* Cn1nc(-c2ccc(S(N)(=O)=O)cc2)nc2c(=O)n(C)c(=O)nc1-2 | 0.8

Task: Query: Papp A→B at 1 h, 10 µM; subject: "Cn1nc(-c2ccn(C)c(=O)c2)nc2c(=O)n(C)c(=O)nc1-2"
Result: 1.1

Task: Continue with "COC(=O)C1(c2ccc(-c3nc4c(=O)n(C)c(=O)nc-4n(C)n3)cc2)CC1"
Result: 24.9

Task: Continue with "Cn1nc(Cc2ccccc2)nc2c(=O)n(C)c(=O)nc1-2"
Result: 25.3

Task: Continue with "COc1ccc(-c2nc3c(=O)n(C)c(=O)nc-3n(C)n2)cc1"
Result: 34.5

---

- procedure-summary: Intrinsic clearance in mouse liver microsomes assessed per mg protein at 1 uM measured up to 60 mins in presence or absence of NADPH by LC-MS/MS analysis
- Assay type: ADME, Microsome
- test-parameters: liver microsomes, read-out: CLH
microsomal CLint at 1 µM reference
# number only, unit µL/min/mg dropped from output

• Cn1nc(-c2ccccc2)nc2n(C)c(=O)nc1-2 = 13.1

Kindly consider the entry below.
Task: Query: microsomal CLint at 1 µM; subject: "Cn1c(=O)[nH]c2ccc(-c3ccccc3)cc2c1=O"
Result: 229

---

- Tested on: P-gp
- procedure-summary: Permeability across apical to basolateral side in MDCK2-MDR1 cells at 10 uM incubated for 60 mins in presence 2 uM P-gp inhibitor elacridar by LC-MS/MS analysis
- Assay type: ADME, cell-based, Canis lupus familiaris
- test-parameters: dog, MDCK-MDR1, with elacridar 2 uM; read-out: permeability
property-label: Papp A→B at 1 h, 10 µM (×10⁻⁶ cm/s)
# number only, unit ×10⁻⁶ cm/s dropped from output

Answered examples (3):
• Cn1c(=O)[nH]c2ccc(-c3ccccc3)cc2c1=O = 27.3
• Cn1nc(-c2ccc(O)cc2)nc2c(=O)n(C)c(=O)nc1-2 = 13.2
• Cn1nc(-c2ccc(C#N)cc2)nc2c(=O)n(C)c(=O)nc1-2 = 26.8

Task: Query: Papp A→B at 1 h, 10 µM; subject: "Cn1nc(-c2ccccc2)nc2c(=O)n(C)c(=O)nc1-2"
Result: 34.7

---

inhibition reference
- test-system: Lysine-specific demethylase 4C (Homo sapiens) (UniProt Q9H3R0)
- procedure-summary: Inhibition of KDM4C (unknown origin) at 10 uM using methylated H3 peptide as substrate by chemiluminescence assay relative to control

Answered examples (4):
- COc1ccc(/C=N/N(C)c2cc(=O)n(C)c(=O)[nH]2)cc1: 40 to 70%
- CN(/N=C/c1ccc(F)cc1)c1cc(=O)n(C)c(=O)[nH]1: > 70%
- CN(/N=C/c1ccccc1)c1cc(=O)n(C)c(=O)[nH]1: > 70%
- CN(/N=C/c1ccc(O)cc1)c1cc(=O)n(C)c(=O)[nH]1: 40 to 70%

Task: Query: inhibition; subject: "CN(C)c1ccccc1/C=N/N(C)c1cc(=O)n(C)c(=O)[nH]1"
Result: 40 to 70%

---

- Tested on: HepG2
- procedure-summary: Antiproliferative activity against human HepG2 cells assessed as reduction in cell growth measured after 24 hrs by MTS assay
- Assay type: functional, cell-based
- test-parameters: HepG2, 24 h
Entries whose IC50 is below 900 nM take Satisfied; entries at or above 900 nM take Not satisfied.

* Cn1nc(-c2ccc(O)cc2)nc2c(=O)n(C)c(=O)nc1-2 | Not satisfied

Task: Threshold test, IC50 < 900 nM: "Cn1nc(-c2ccccc2)nc2c(=O)n(C)c(=O)nc1-2"
Result: Satisfied

Task: Continue with "CN(C)c1ccccc1-c1nc2c(=O)n(C)c(=O)nc-2n(C)n1"
Result: Not satisfied

Task: Continue with "COC(=O)C1(c2ccc(-c3nc4c(=O)n(C)c(=O)nc-4n(C)n3)cc2)CC1"
Result: Not satisfied

Task: Continue with "Cn1nc(-c2ccn(C)c(=O)c2)nc2c(=O)n(C)c(=O)nc1-2"
Result: Not satisfied

Task: Continue with "Cn1nc(-c2ccc(C#N)cc2)nc2c(=O)n(C)c(=O)nc1-2"
Result: Satisfied

Task: Continue with "Cn1nc(-c2ccncc2)nc2c(=O)n(C)c(=O)nc1-2"
Result: Not satisfied

Task: Continue with "Cn1nc(-c2ccc(S(N)(=O)=O)cc2)nc2c(=O)n(C)c(=O)nc1-2"
Result: Not satisfied

Task: Continue with "Cn1c(=O)nc2[nH]nc(-c3ccccc3)nc-2c1=O"
Result: Not satisfied

Task: Continue with "Cn1nc(Cc2ccccc2)nc2c(=O)n(C)c(=O)nc1-2"
Result: Not satisfied

Task: Continue with "Cn1c(=O)[nH]c2ccc(-c3ccccc3)cc2c1=O"
Result: Not satisfied

Task: Continue with "Cn1nc(-c2ccc(F)cc2)nc2c(=O)n(C)c(=O)nc1-2"
Result: Satisfied

Task: Continue with "Cn1ncnc2c(=O)n(C)c(=O)nc1-2"
Result: Not satisfied

Task: Continue with "COc1ccc(-c2nc3c(=O)n(C)c(=O)nc-3n(C)n2)cc1"
Result: Satisfied

Task: Continue with "Cn1nc(-c2ccccc2)nc2n(C)c(=O)nc1-2"
Result: Not satisfied
